target: AR (Homo sapiens, UniProt P10275); construct: Degradation of AR; Cellular potency; host or cells: VCaP cells; assay: Degradation of AR in VCaP cells; type: cell-based; conditions: VCaP, VCaP cells
Sequence (P10275 whole entry): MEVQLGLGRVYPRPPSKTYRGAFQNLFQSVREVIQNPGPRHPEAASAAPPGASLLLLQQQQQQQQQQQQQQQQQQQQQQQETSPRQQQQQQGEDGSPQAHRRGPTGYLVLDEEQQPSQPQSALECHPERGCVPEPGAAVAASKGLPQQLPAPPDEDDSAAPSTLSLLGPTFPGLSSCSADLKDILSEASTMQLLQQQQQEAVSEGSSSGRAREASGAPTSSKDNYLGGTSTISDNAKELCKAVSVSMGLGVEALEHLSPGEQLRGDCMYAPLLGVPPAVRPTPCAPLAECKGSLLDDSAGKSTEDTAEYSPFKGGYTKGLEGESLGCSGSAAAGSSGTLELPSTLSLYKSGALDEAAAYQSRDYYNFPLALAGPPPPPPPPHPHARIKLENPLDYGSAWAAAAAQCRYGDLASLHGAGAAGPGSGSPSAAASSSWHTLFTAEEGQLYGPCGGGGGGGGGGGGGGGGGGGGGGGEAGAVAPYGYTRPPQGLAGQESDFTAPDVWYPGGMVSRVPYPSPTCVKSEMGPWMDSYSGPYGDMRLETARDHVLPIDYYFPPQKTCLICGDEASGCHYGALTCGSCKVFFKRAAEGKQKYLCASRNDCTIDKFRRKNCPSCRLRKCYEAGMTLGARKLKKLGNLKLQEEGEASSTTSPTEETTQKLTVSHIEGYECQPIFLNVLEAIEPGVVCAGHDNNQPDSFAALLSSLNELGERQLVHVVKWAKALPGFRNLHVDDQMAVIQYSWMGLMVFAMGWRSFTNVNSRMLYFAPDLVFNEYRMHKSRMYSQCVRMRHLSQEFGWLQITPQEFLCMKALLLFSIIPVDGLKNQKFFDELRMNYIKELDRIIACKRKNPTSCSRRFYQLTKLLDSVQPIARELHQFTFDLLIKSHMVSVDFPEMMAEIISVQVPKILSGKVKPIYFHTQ
The entries below are paired with their reported Dmax.

*Q* Requested field: Dmax. Item: C[C@H]1CC2(CCN(c3ccc(C(=O)N4CCN(C5CN(c6ccc7c(c6)C(=O)N(C6CCC(=O)NC6=O)C7=O)C5)CC4)s3)CC2)CN1c1ccc(C#N)c(Cl)c1 (stereo partly drawn) [compound 135]
*A* 70 to 90%

*Q* Data request, read-out Dmax, for C[C@H]1CC2(CCN(c3ccc(N4CCN(C5CN(c6ccc7c(c6)C(=O)N(C6CCC(=O)NC6=O)C7=O)C5)CC4)nc3)CC2)CN1c1ccc(C#N)c(Cl)c1 (stereo partly drawn) [compound 36]
*A* > 90%

*Q* Need Dmax, item C[C@H]1CC2(CCN(c3ccc(N4CCN(CC5CN(c6ccc7c(c6)C(=O)N(C6CCC(=O)NC6=O)C7=O)C5)CC4)nn3)CC2)CN1c1ccc(C#N)c(Cl)c1 (stereo partly drawn) [compound 47]
*A* > 90%

*Q* Can you look up the measured Dmax of COC1(CN2CCN(c3ccc(N4CCC5(CC4)C[C@H](C)N(c4ccc(C#N)c(Cl)c4)C5)cc3)CC2)CN(c2ccc3c(c2)C(=O)N(C2CCC(=O)NC2=O)C3=O)C1 (stereo partly drawn) [compound 85] for me?
*A* > 90%

*Q* Report Dmax for C[C@H]1CC2(CCN(c3ccc(OC4CCN(C5CN(c6ccc7c(c6)C(=O)N(C6CCC(=O)NC6=O)C7=O)C5)CC4)nc3)CC2)CN1c1ccc(C#N)c(Cl)c1 (stereo partly drawn) [compound 63] please.
*A* > 90%

*Q* Fill blank: measured Dmax of the compound C[C@H]1CC2(CCN(c3ccc(C4CCN(CC5CN(c6ccc7c(c6)C(=O)N(C6CCC(=O)NC6=O)C7=O)C5)CC4)cn3)CC2)CN1c1ccc(C#N)c(Cl)c1 (stereo partly drawn) [compound 43] is ____.
*A* > 90%

---

molecular target: AR (Homo sapiens, UniProt P10275); construct: Degradation of AR; Cellular potency; host or cells: VCaP cells; experiment: Degradation of AR in VCaP cells; assay type: cell-based; details: VCaP cells
Below: a set of entries, each annotated with reported DC50.

C[C@H]1CC2(CCN(c3ccc(CN4CCC(C5CN(c6ccc7c(c6)C(=O)N(C6CCC(=O)NC6=O)C7=O)C5)CC4)c(F)c3)CC2)CN1c1ccc(C#N)c(Cl)c1 (stereo partly drawn) [compound 41]; < 10 nM

*Q* State the recorded DC50 for this entry: C[C@H]1CC2(CCN(c3ccc(CN4CC(N5CCN(c6cc7c(cc6F)C(=O)N(C6CCC(=O)NC6=O)C7=O)CC5)C4)cn3)CC2)CN1c1ccc(C#N)c(Cl)c1 (stereo partly drawn)
*A* < 1 nM

*Q* Can you look up the measured DC50 of C[C@H]1CC2(CCN(c3ccc(N4CCN(CC5(F)CN(c6ccc7c(c6)C(=O)N(C6CCC(=O)NC6=O)C7=O)C5)CC4)nc3)CC2)CN1c1ccc(C#N)c(Cl)c1 (stereo partly drawn) for me?
*A* < 1 nM

*Q* Which DC50 reading was recorded for the compound C[C@H]1CC2(CCN(c3ccc(CC4CCN(C5CN(c6ccc7c(c6)C(=O)N(C6CCC(=O)NC6=O)C7=O)C5)CC4)cn3)CC2)CN1c1ccc(C#N)c(Cl)c1 (stereo partly drawn) ?
*A* < 1 nM

*Q* // returns reported DC50 for input C[C@H]1CC2(CCN(c3ccc(CN4CCC(C5CN(c6ccc7c(c6)C(=O)N(C6CCC(=O)NC6=O)C7=O)C5)CC4)nc3)CC2)CN1c1ccc(C#N)c(Cl)c1 (stereo partly drawn)
*A* < 1 nM

*Q* // query DC50 value for entry C[C@H]1CC2(CCN(c3ccc(S(=O)(=O)C4CN(C(=O)CN5Cc6cc7c(cc6C5)C(=O)N(C5CCC(=O)NC5=O)C7=O)C4)cc3)CC2)CN1c1ccc(C#N)c(Cl)c1 (stereo partly drawn)
*A* < 1 nM

---

Molecular target: AR (Homo sapiens, UniProt P10275)
Construct: Degradation of AR; Cellular potency; host or cells: VCaP cells
Assay: Degradation of AR in VCaP cells
Type: cell-based
Conditions: VCaP cells
Method: Biological Assays. LNCaP and VCaP cells used were purchased from American Type Culture Collection (ATCC). LNCaP were grown in RPMI 1640 (Invitrogen) and VCaP cells were grown in DMEM with Glutamax (Invitrogen). All of the cells were supplemented with 10% fetal bovine serum (Invitrogen) at 37° C. in a humidified 5% CO2 incubator.
attribute-measured: DC50

Worked cases, DC50 given:
C[C@H]1CC2(CCN(c3ccc(N4CCC(OC5CN(c6ccc7c(c6)C(=O)N(C6CCC(=O)NC6=O)C7=O)C5)CC4)nc3)CC2)CN1c1ccc(C#N)c(Cl)c1 (stereo partly shown) [compound 91]; < 1 nM
C[C@H]1CC2(CCN(c3ccc(N4CCN(CC5CCN(c6ccc7c(c6)C(=O)N(C6CCC(=O)NC6=O)C7=O)CC5)CC4)cc3)CC2)CN1c1ccc(C#N)c(Cl)c1 (stereo partly shown) [compound 30]; < 1 nM
C[C@H]1CC2(CCN(c3ccc(S(=O)(=O)N4CCC(N5Cc6cc7c(cc6C5)C(=O)N(C5CCC(=O)NC5=O)C7=O)CC4)cc3)CC2)CN1c1ccc(C#N)c(Cl)c1 (stereo partly shown) [compound 4]; < 1 nM
C[C@H]1CC2(CCN(c3ccc(CN4CC(C5CCN(c6ccc7c(c6)C(=O)N(C6CCC(=O)NC6=O)C7=O)CC5)C4)nc3)CC2)CN1c1ccc(C#N)c(Cl)c1 (stereo partly shown) [compound 179]; < 10 nM
C[C@H]1CC2(CCN(c3ccc(CN4CCN(C5CN(c6ccc7c(c6)C(=O)N(C6CCC(=O)NC6=O)C7=O)C5)CC4)c(F)c3)CC2)CN1c1ccc(C#N)c(Cl)c1 (stereo partly shown) [compound 40]; < 10 nM

*Q* Which DC50 reading was recorded for the molecule C[C@H]1CC2(CCN(c3ccc(CN4CCN(C5CN(c6ccc7c(c6)C(=O)N(C6CCC(=O)NC6=O)C7=O)C5)CC4)cc3)CC2)CN1c1ccc(C#N)c(Cl)c1 (stereo partly shown) [compound 5] ?
*A* < 1 nM

*Q* Endpoint output: DC50 of C[C@H]1CC2(CCN(c3ccc(CN4CCC(C5CN(c6ccc7c(c6)C(=O)N(C6CCC(=O)NC6=O)C7=O)C5)CC4)c(F)c3)CC2)CN1c1ccc(C#N)c(Cl)c1 (stereo partly shown) [compound 9] . Value?
*A* < 1 nM

---

Target: AR (Homo sapiens, UniProt P10275)
Construct: Degradation of AR; Cellular potency; host or cells: VCaP cells
Assay: Degradation of AR in VCaP cells
Assay type: cell-based
Settings: VCaP cells
Procedure: Biological Assays. LNCaP and VCaP cells used were purchased from American Type Culture Collection (ATCC). LNCaP were grown in RPMI 1640 (Invitrogen) and VCaP cells were grown in DMEM with Glutamax (Invitrogen). All of the cells were supplemented with 10% fetal bovine serum (Invitrogen) at 37° C. in a humidified 5% CO2 incubator.
attribute-measured: DC50

C[C@H]1CC2(CCN(c3ccc(OC4CCN(C5CN(c6ccc7c(c6)C(=O)N(C6CCC(=O)NC6=O)C7=O)C5)CC4)nn3)CC2)CN1c1ccc(C#N)c(Cl)c1 (stereo partly drawn); < 1 nM
C[C@H]1CC2(CCN(c3ccc(N4CCN(CC5CCN(c6ccc7c(c6)C(=O)N(C6CCC(=O)NC6=O)C7=O)CC5)CC4)nn3)CC2)CN1c1ccc(C#N)c(Cl)c1 (stereo partly drawn); < 1 nM

// below: DC50 requested for another compound
*Q* What does the data say about its DC50? Entry: C[C@H]1CC2(CCN(c3ccc(CC4CCN(CC5CN(c6ccc7c(c6)C(=O)N(C6CCC(=O)NC6=O)C7=O)C5)CC4)cc3)CC2)CN1c1ccc(C#N)c(Cl)c1 (stereo partly drawn)
*A* < 1 nM

---

DC50 values by entry
molecular target: AR (Homo sapiens); construct: Degradation of AR; Cellular potency; host or cells: VCaP cells; assay: Degradation of AR in VCaP cells; format: cell-based; conditions: VCaP cells

C[C@H]1CC2(CCN(c3ccc(N4CCC(CN5CCN(c6ccc7c(c6)C(=O)N(C6CCC(=O)NC6=O)C7=O)CC5)CC4)nn3)CC2)CN1c1ccc(C#N)c(Cl)c1 (stereo partly drawn); < 10 nM

*Q* Which DC50 value is on record for C[C@H]1CC2(CCN(c3ccc(OC4CCN(C5CCN(c6ccc7c(c6)C(=O)N(C6CCC(=O)NC6=O)C7=O)CC5)CC4)cc3)CC2)CN1c1ccc(C#N)c(Cl)c1 (stereo partly drawn) ?
*A* < 10 nM

*Q* Return reported DC50; argument: COC1(CN2CCN(c3ccc(N4CCC5(CC4)C[C@H](C)N(c4ccc(C#N)c(Cl)c4)C5)cn3)CC2)CN(c2ccc3c(c2)C(=O)N(C2CCC(=O)NC2=O)C3=O)C1 (stereo partly drawn)
*A* < 1 nM
